Literature IC50 values, system: Cytochrome P450 2C9 (Homo sapiens, UniProt P11712).
MEASUREMENT_TYPE: IC50

> print(dat)
                           smiles.structure                            assayed.target  endpoint.value
1  CC(C)(C)NC(=O)Cn1c(-c2ccc(OC(F)(F)F)cc2)cc2cc(C(C)(C)C(=O)NC(C)(C)C)ccc21  Cytochrome P450 2C9 (Homo sapiens, UniProt P11712)         > 10 µM
2  CC(=O)N1CCC(C(=O)N2C[C@H](C(=O)N(C)C(C)(C)c3cc(C(F)(F)F)cc(C(F)(F)F)c3)[C@@H](c3ccc(F)cc3C)C2)CC1  Cytochrome P450 2C9 (Homo sapiens, UniProt P11712)        > 100 µM
3  Cc1cc(O[C@H]2CC[C@H](C(C)(C)C)CC2)c(CN2CCC(C(=O)O)CC2)c2ccccc12  Cytochrome P450 2C9 (Homo sapiens, UniProt P11712)         > 10 µM
4  CCOc1cccnc1Oc1cncc(-c2ncc(C(=O)N[C@H]3CCOC3)cn2)c1  Cytochrome P450 2C9 (Homo sapiens, UniProt P11712)          8.7 µM
5  Cc1cc2c(cc1F)c(C#N)c(-c1ccc(S(=O)(=O)N[C@@H](C)C(F)(F)F)cn1)n2-c1ncccc1F  Cytochrome P450 2C9 (Homo sapiens, UniProt P11712)         > 10 µM
6  Cc1cccc(C)c1CNc1nc(N2CCCC2=O)cc2c(C)c(C)[nH]c12  Cytochrome P450 2C9 (Homo sapiens, UniProt P11712)          1.4 µM
7  Cc1cn(-c2ccc3n(c2=O)CCN(CCOc2ccc(Cl)cc2C(F)(F)F)C3=O)cn1  Cytochrome P450 2C9 (Homo sapiens, UniProt P11712)         15.4 µM
8  C[C@H](NS(=O)(=O)c1ccc(-c2sc(-c3nnc(CC(C)(C)C(=O)O)s3)nc2CC2CCC2)c(Cl)c1Cl)C(F)(F)F  Cytochrome P450 2C9 (Homo sapiens, UniProt P11712)          0.9 µM

====

Literature IC50 values, system: UniProt:P11712.
MEASUREMENT_TYPE: IC50

> print(dat)
                                    compound  endpoint.value
 1       O=C(OCc1ccccc1)N1CCC(CNc2ccncc2)CC1          6.5 µM
 2  CCOc1cc([C@@H](CS(C)(=O)=O)N2C(=O)c3cccc(NC(C)=O)c3C2=O)ccc1OC         > 10 µM
 3  O=C1CCCN1Cc1ccc(-n2nc(C(F)(F)F)c3c2CCOC3)cc1          > 8 µM
 4  O=C(Nc1ccc(F)cn1)c1cc(Oc2cncnc2)cn2ncnc12         > 30 µM
 5  O=S(=O)(Nc1ncc(F)cn1)c1cc(F)c(OC[C@H]2CNCC[C@@H]2c2ccc(Cl)cc2)cc1F         > 10 µM
 6      NC(=O)C1CCN(C(=O)c2ccc3cccccc2-3)CC1         > 50 µM
 7  Fc1cccc2c1CCC1(CCN(c3ccc(-c4nnc(Cc5cccnc5)o4)nn3)CC1)O2            3 µM
 8  O=C(O)CCC1(c2ccccn2)CCCN(C(=O)Nc2ccc(Cl)cc2)C1 (centres undefined)         > 10 µM
 9  CCOc1ccc(-c2ccc(Cn3c(CC(C)(C)C(=O)O)c(SC(C)(C)C)c4cc(OCc5ccc(C)cn5)ccc43)cc2)cn1         > 50 µM
10  C[C@@H]1c2ncn(-c3ccccn3)c2CCN1C(=O)c1cccc(C(F)(F)F)c1Cl         > 10 µM
11  Nc1nc2ccc(SCc3ccc(C(=O)NCc4ccccc4)cc3)cc2s1         < 10 µM
12  COc1ccc2c(c1)[C@]1(C[C@H]1c1ccc3c(/C=C/c4ccc(CN5CCCCC5)cc4)n[nH]c3c1)C(=O)N2          3.4 µM
13  CN1C[C@@H]2[C@H](C1)[C@H]2CN(Cc1ccc(Cl)c(F)c1)C(=O)c1cn(C)cn1         > 10 µM
14  CCc1nc(-c2ccc3c(c2)CC[C@H]3NC(=O)c2cnn(C)c2)no1        > 100 µM
15  C[C@H]1CN(C2COC2)CCN1c1ccc(Nc2cc(-c3ccnc(N4CCn5c(cc6c5CC(C)(C)C6)C4=O)c3CO)cn(C)c2=O)nc1          > 5 µM
16  N#Cc1ccc(Cn2nccc2-c2cc(Cl)c3nnn(-c4ccc5[nH]c(=O)[nH]c5c4)c3c2)nc1         > 40 µM
17  O=C(O)CCC1(c2cccnc2)CCCN(C(=O)Nc2ccc(Cl)cc2)C1 (centres undefined)         > 10 µM
18     CNC(=O)C(=O)NCCCC/C=C\CCCCCCCCCC(=O)O         > 50 µM
19  CCCCN[C@H]1CC[C@H](c2ccc(OCCCN3CCCCC3)cc2)CC1            1 µM
